Numbers sourced from ChEMBL document CHEMBL5523675.

# Tested on: MCF7
# TEST_NAME: Antiproliferative activity against human MCF7 cells assessed as inhibition of cell growth measured after 48 hrs by Alamar blue dye based assay
# Format: functional
# ASSAY_CONDITIONS: MCF7, 48 h
Give measured pIC50 for each item. Keep answers brief.
# reply with the number alone; pIC50 is -log10 of concentration in mol/L

I am curious: what pIC50 value has been reported for C[n+]1ccc(/C=C/c2cc3c(O)c(c2)Cc2cc(C(C)(C)C)cc(c2OCCCn2cc(CBr)nn2)Cc2cc(/C=C/c4cc[n+](C)cc4)cc(c2O)Cc2cc(C(C)(C)C)cc(c2OCCCn2cc(CBr)nn2)C3)cc1 ?
4.55

I am curious: what pIC50 value has been reported for C[n+]1ccc(/C=C/c2cc3c(O)c(c2)Cc2cc(C(C)(C)C)cc(c2OCCCn2cc(CN4C(=O)C(=O)c5cc(Br)ccc54)nn2)Cc2cc(/C=C/c4cc[n+](C)cc4)cc(c2O)Cc2cc(C(C)(C)C)cc(c2OCCCn2cc(CN4C(=O)C(=O)c5cc(Br)ccc54)nn2)C3)cc1.[I-].[I-] ?
5.00

I am curious: what pIC50 value has been reported for C[n+]1ccc(/C=C/c2cc3c(O)c(c2)Cc2cc(C(C)(C)C)cc(c2OCCCn2cc(CN4C(=O)C(=O)c5cc(F)ccc54)nn2)Cc2cc(/C=C/c4cc[n+](C)cc4)cc(c2O)Cc2cc(C(C)(C)C)cc(c2OCCCn2cc(CN4C(=O)C(=O)c5cc(F)ccc54)nn2)C3)cc1.[I-].[I-] ?
4.94

I am curious: what pIC50 value has been reported for C[n+]1ccc(/C=C/c2cc3c(O)c(c2)Cc2cc(C(C)(C)C)cc(c2OCCCn2cc(CN4C(=O)C(=O)c5cc(I)ccc54)nn2)Cc2cc(/C=C/c4cc[n+](C)cc4)cc(c2O)Cc2cc(C(C)(C)C)cc(c2OCCCn2cc(CN4C(=O)C(=O)c5cc(I)ccc54)nn2)C3)cc1.[I-].[I-] ?
4.82

I am curious: what pIC50 value has been reported for O=c1[nH]cc(F)c(=O)[nH]1 [FLUOROURACIL] ?
4.45

I am curious: what pIC50 value has been reported for C[n+]1ccc(/C=C/c2cc3c(O)c(c2)Cc2cc(C(C)(C)C)cc(c2OCCCn2cc(CN4C(=O)C(=O)c5cc(Cl)ccc54)nn2)Cc2cc(/C=C/c4cc[n+](C)cc4)cc(c2O)Cc2cc(C(C)(C)C)cc(c2OCCCn2cc(CN4C(=O)C(=O)c5cc(Cl)ccc54)nn2)C3)cc1.[I-].[I-] ?
5.05

###

# TEST_NAME: Antiproliferative activity against human PNT1A cells assessed as inhibition of cell growth measured after 48 hrs by Alamar blue dye based assay
# Type: toxicity
Give measured IC50 at 48 h for each item. Keep answers brief.
Quick note: number first, unit second.

I am curious: what IC50 at 48 h value has been reported for C[n+]1ccc(/C=C/c2cc3c(O)c(c2)Cc2cc(C(C)(C)C)cc(c2OCCCn2cc(CN4C(=O)C(=O)c5cc(Br)ccc54)nn2)Cc2cc(/C=C/c4cc[n+](C)cc4)cc(c2O)Cc2cc(C(C)(C)C)cc(c2OCCCn2cc(CN4C(=O)C(=O)c5cc(Br)ccc54)nn2)C3)cc1.[I-].[I-] ?
57.2 µM

I am curious: what IC50 at 48 h value has been reported for C[n+]1ccc(/C=C/c2cc3c(O)c(c2)Cc2cc(C(C)(C)C)cc(c2OCCCn2cc(CN4C(=O)C(=O)c5cc(I)ccc54)nn2)Cc2cc(/C=C/c4cc[n+](C)cc4)cc(c2O)Cc2cc(C(C)(C)C)cc(c2OCCCn2cc(CN4C(=O)C(=O)c5cc(I)ccc54)nn2)C3)cc1.[I-].[I-] ?
72.5 µM

I am curious: what IC50 at 48 h value has been reported for C[n+]1ccc(/C=C/c2cc3c(O)c(c2)Cc2cc(C(C)(C)C)cc(c2OCCCn2cc(CBr)nn2)Cc2cc(/C=C/c4cc[n+](C)cc4)cc(c2O)Cc2cc(C(C)(C)C)cc(c2OCCCn2cc(CBr)nn2)C3)cc1 ?
86.4 µM

I am curious: what IC50 at 48 h value has been reported for C[n+]1ccc(/C=C/c2cc3c(O)c(c2)Cc2cc(C(C)(C)C)cc(c2OCCCn2cc(CN4C(=O)C(=O)c5cc(Cl)ccc54)nn2)Cc2cc(/C=C/c4cc[n+](C)cc4)cc(c2O)Cc2cc(C(C)(C)C)cc(c2OCCCn2cc(CN4C(=O)C(=O)c5cc(Cl)ccc54)nn2)C3)cc1.[I-].[I-] ?
32.9 µM
